assay: Selectivity for 5HT1A receptor in rat hippocampus over human adrenergic alpha 1A receptor; format: tissue-based
Quantity Name: Selectivity ratio
One number for each entry.

- Compound Structure: "COc1cccc(OC)c1OCCNC[C@@H]1COc2cc3ccccc3cc2O1"
  Selectivity ratio: 9.8
- Compound Structure: "COc1ccc2c(c1OCCNC[C@@H]1COc3ccccc3O1)CCCC2"
  Selectivity ratio: 11.5
- Compound Structure: "COc1cc(-c2ccccc2)ccc1OCCNC[C@@H]1COc2ccccc2O1"
  Selectivity ratio: 3.7
- Compound Structure: "COc1ccc2ccccc2c1OCCNC[C@@H]1COc2cc3c(cc2O1)CCCC3"
  Selectivity ratio: 11.2
- Compound Structure: "COc1cccc(OC)c1OCCNC[C@H]1COc2cc3c(cc2O1)CCCC3"
  Selectivity ratio: 14.5

Return reported Selectivity ratio values for all items listed beneath this line.
1. COc1ccc(-c2ccccc2)cc1OCCNC[C@H]1COc2ccccc2O1
2. COc1cccc(-c2ccccc2)c1OCCNC[C@H]1COc2ccccc2O1
3. COc1ccc(-c2ccccc2)cc1OCCNC[C@@H]1COc2ccccc2O1

**Result**
1. 9.3
2. 5.8
3. 22.4

Return reported Selectivity ratio values for all items listed beneath this line.
1. COc1ccc2ccccc2c1OCCNC[C@H]1COc2cc3c(cc2O1)CCCC3
2. COc1ccc2c(c1OCCNC[C@H]1COc3ccccc3O1)CCCC2
3. COc1cc(-c2ccccc2)ccc1OCCNC[C@H]1COc2ccccc2O1
4. COc1cccc(-c2ccccc2)c1OCCNC[C@@H]1COc2ccccc2O1
5. COc1ccc2ccccc2c1OCCNC[C@@H]1COc2ccccc2O1
6. COc1ccc2ccccc2c1OCCNC[C@H]1COc2ccccc2O1
7. COc1cccc(OC)c1OCCNC[C@@H]1COc2cc3c(cc2O1)CCCC3

**Result**
1: 25.7; 2: 3; 3: 0.9; 4: 8.3; 5: 14.8; 6: 7.1; 7: 5

**Query** Give a short answer stating reported Selectivity ratio for COc1cccc(OC)c1OCCNC[C@H]1COc2cc3ccccc3cc2O1 .
**Result** 10.2

###

target: Adrenergic receptors; alpha-1 A & B (Homo sapiens) (UniProt P35348+P35368); assay: Selectivity for human adrenergic alpha 1B receptor over human adrenergic alpha 1A receptor; type: protein assay
I'd appreciate it if you could supply Selectivity ratio values for the items below.

Sample records with Selectivity ratio:
- Compound Structure: "COc1cc(-c2ccccc2)ccc1OCCNC[C@H]1COc2ccccc2O1"
  Measurement Target: "Adrenergic receptors; alpha-1 A & B (Homo sapiens) (UniProt P35348+P35368)"
  Selectivity ratio: 2.1
- Compound Structure: "COc1ccc(-c2ccccc2)cc1OCCNC[C@H]1COc2ccccc2O1"
  Measurement Target: "Adrenergic receptors; alpha-1 A & B (Homo sapiens) (UniProt P35348+P35368)"
  Selectivity ratio: 1.9
- Compound Structure: "COc1cccc(OC)c1OCCNC[C@H]1COc2cc3c(cc2O1)CCCC3"
  Measurement Target: "Adrenergic receptors; alpha-1 A & B (Homo sapiens) (UniProt P35348+P35368)"
  Selectivity ratio: 22.9

Return reported Selectivity ratio values for all items listed beneath this line.
1. COc1ccc2ccccc2c1OCCNC[C@H]1COc2cc3c(cc2O1)CCCC3
2. COc1cc(-c2ccccc2)ccc1OCCNC[C@@H]1COc2ccccc2O1

**Result**
1. 5.6
2. 2.3

###

molecular target: Alpha-1B adrenergic receptor (Rattus norvegicus); test: Activity at adrenergic alpha 1B receptor assessed as antagonsim of phenylephrine-induced contraction of Sprague-Dawley rat spleen; assay type: functional, tissue-based; conditions: read-out: pA2 (converted)
Lab note: anything with Kb below 10 nM is marked Y; values at 10 nM or higher are marked N.

Solved entries:
- Compound Structure: "COc1cccc(OC)c1OCCNC[C@H]1COc2cc3ccccc3cc2O1"
  Class Label: "N"
- Compound Structure: "COc1ccc2ccccc2c1OCCNC[C@@H]1COc2ccccc2O1"
  Class Label: "N"
- Compound Structure: "COc1cccc(OC)c1OCCNC[C@H]1COc2cc3c(cc2O1)CCCC3"
  Class Label: "N"

**Query** Please state whether Kb is below 10 nM for COc1ccc2ccccc2c1OCCNC[C@H]1COc2cc3c(cc2O1)CCCC3
**Result** N

**Query** Please state whether Kb is below 10 nM for COc1ccc2c(c1OCCNC[C@H]1COc3ccccc3O1)CCCC2
**Result** Y

**Query** Please state whether Kb is below 10 nM for COc1cc(-c2ccccc2)ccc1OCCNC[C@H]1COc2ccccc2O1
**Result** N

###

I'd appreciate it if you could supply Selectivity ratio values for the items below.
biological target: Alpha adrenergic receptor 1A and 1D (Rattus norvegicus) (UniProt P23944+P43140); experiment: Selectivity for Sprague-Dawley rat adrenergic alpha 1D receptor over adrenergic alpha 1A receptor; format: functional

- Compound Structure: "COc1cccc(OC)c1OCCNC[C@H]1COc2cc3ccccc3cc2O1"
  Value Measured: 0.05
- Compound Structure: "COc1ccc2ccccc2c1OCCNC[C@@H]1COc2ccccc2O1"
  Value Measured: 0.17

Return reported Selectivity ratio values for all items listed beneath this line.
1. COc1cccc(OC)c1OCCNC[C@H]1COc2cc3c(cc2O1)CCCC3
2. COc1cc(-c2ccccc2)ccc1OCCNC[C@H]1COc2ccccc2O1
3. COc1ccc2c(c1OCCNC[C@H]1COc3ccccc3O1)CCCC2

**Result**
["< 0.4", 0.14, 0.04]

###

biological target: Alpha-1B adrenergic receptor (Homo sapiens, UniProt P35368); test: Displacement of [3H]prazosin from cloned human adrenergic alpha 1B receptor expressed in CHO cells; assay type: cell-based
Sequence (P35368 whole entry): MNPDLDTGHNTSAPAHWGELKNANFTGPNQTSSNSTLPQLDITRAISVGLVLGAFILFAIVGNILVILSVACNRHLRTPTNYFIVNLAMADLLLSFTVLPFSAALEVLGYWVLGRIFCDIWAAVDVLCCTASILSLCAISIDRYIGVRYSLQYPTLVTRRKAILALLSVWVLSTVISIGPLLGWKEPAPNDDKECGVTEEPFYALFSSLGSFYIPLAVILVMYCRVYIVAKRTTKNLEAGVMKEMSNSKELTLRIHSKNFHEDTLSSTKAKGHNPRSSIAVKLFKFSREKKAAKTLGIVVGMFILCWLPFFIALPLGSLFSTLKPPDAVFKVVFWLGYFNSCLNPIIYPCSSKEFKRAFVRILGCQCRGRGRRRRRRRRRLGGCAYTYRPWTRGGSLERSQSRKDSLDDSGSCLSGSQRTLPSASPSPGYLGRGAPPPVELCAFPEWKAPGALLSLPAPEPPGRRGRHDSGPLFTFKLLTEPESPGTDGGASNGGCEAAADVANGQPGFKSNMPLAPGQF
Lab note: anything with Ki below 600 nM is marked T; values at 600 nM or higher are marked F.

- Compound Structure: "COc1cccc(OC)c1OCCNC[C@H]1COc2cc3c(cc2O1)CCCC3"
  Class Label: "T"
- Compound Structure: "COc1cc(-c2ccccc2)ccc1OCCNC[C@H]1COc2ccccc2O1"
  Class Label: "T"
- Compound Structure: "COc1cccc(OC)c1OCCNC[C@H]1COc2cc3ccccc3cc2O1"
  Class Label: "F"
- Compound Structure: "COc1cc(-c2ccccc2)ccc1OCCNC[C@@H]1COc2ccccc2O1"
  Class Label: "T"
- Compound Structure: "COc1cccc(OC)c1OCCNC[C@@H]1COc2cc3ccccc3cc2O1"
  Class Label: "T"

**Query** Please state whether Ki is below 600 nM for COc1ccc2c(c1OCCNC[C@@H]1COc3ccccc3O1)CCCC2
**Result** T

###

Biological target: Alpha-1A adrenergic receptor (Homo sapiens, UniProt P35348)
Sequence (P35348 whole entry): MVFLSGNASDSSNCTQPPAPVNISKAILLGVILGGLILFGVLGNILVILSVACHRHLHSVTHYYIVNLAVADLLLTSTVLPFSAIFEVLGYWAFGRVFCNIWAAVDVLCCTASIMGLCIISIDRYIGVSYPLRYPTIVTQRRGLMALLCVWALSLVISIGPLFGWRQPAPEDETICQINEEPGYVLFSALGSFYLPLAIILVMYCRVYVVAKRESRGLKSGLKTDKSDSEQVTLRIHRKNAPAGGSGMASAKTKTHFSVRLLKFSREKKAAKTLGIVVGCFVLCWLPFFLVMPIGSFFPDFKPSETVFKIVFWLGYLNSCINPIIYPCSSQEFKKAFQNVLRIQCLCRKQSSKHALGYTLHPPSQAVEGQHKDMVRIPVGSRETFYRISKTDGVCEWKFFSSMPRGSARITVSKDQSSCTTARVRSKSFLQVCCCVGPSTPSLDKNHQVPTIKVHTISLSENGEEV
pKi: −log10 of the molar value.
Classify by measured pKi: T if it is equal to or exceeds 8, F if it is smaller.

**Query** Does the reported pKi for COc1ccc2ccccc2c1OCCNC[C@H]1COc2cc3c(cc2O1)CCCC3 fall at or above the 8 mark?
**Result** F

**Query** Does the reported pKi for COc1cccc(OC)c1OCCNC[C@H]1COc2cc3ccccc3cc2O1 fall at or above the 8 mark?
**Result** F

**Query** Does the reported pKi for COc1ccc2ccccc2c1OCCNC[C@H]1COc2ccccc2O1 fall at or above the 8 mark?
**Result** T

**Query** Does the reported pKi for COc1cccc(OC)c1OCCNC[C@H]1COc2ccccc2O1.Cl fall at or above the 8 mark?
**Result** T

###

biological target: Alpha adrenergic receptor 1A and 1B (Rattus norvegicus) (UniProt P15823+P43140); experiment: Selectivity for Sprague-Dawley rat adrenergic alpha 1B receptor over adrenergic alpha 1A receptor; type: functional
Sequence (P15823 whole entry, looked up): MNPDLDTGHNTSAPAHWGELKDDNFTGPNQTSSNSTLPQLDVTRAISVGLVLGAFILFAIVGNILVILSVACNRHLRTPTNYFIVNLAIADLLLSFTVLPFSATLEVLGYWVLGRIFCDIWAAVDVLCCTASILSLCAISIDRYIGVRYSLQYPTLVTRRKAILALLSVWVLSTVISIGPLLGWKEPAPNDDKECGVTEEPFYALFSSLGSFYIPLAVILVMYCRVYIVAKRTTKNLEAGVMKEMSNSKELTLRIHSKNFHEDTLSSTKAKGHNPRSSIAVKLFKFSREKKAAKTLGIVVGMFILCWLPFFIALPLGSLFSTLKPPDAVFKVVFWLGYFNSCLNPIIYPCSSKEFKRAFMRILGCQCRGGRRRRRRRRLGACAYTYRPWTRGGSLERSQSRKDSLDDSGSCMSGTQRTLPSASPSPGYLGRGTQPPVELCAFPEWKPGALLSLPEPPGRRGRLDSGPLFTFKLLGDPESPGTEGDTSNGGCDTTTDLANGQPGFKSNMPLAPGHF
Sequence (P43140 whole entry, looked up): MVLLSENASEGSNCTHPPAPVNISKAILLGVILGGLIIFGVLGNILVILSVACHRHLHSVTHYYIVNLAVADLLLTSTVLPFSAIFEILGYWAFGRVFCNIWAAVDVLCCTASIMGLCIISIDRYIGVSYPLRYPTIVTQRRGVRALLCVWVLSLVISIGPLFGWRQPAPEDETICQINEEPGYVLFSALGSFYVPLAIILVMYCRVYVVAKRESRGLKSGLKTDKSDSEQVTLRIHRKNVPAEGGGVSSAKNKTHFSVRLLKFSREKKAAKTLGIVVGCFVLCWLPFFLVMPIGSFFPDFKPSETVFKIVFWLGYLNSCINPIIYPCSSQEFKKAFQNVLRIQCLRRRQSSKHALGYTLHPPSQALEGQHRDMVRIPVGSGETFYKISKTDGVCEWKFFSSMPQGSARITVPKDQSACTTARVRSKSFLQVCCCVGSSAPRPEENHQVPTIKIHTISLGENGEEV
I'd appreciate it if you could supply Selectivity ratio values for the items below.
Answers are plain numbers.

Sample records with Selectivity ratio:
- Compound Structure: "COc1ccc2ccccc2c1OCCNC[C@H]1COc2ccccc2O1"
  Value Measured: 0.2
- Compound Structure: "COc1cccc(OC)c1OCCNC[C@H]1COc2cc3ccccc3cc2O1"
  Value Measured: 0.7
- Compound Structure: "COc1ccc2ccccc2c1OCCNC[C@@H]1COc2ccccc2O1"
  Value Measured: 0.25

**Query** Name the value of Selectivity ratio reported for COc1cccc(-c2ccccc2)c1OCCNC[C@H]1COc2ccccc2O1 when tested on Alpha adrenergic receptor 1A and 1B (Rattus norvegicus) (UniProt P15823+P43140).
**Result** 1.2

Each recorded value in this set is attributed to ChEMBL document CHEMBL1137361.
